# TARGET_SYSTEM: HIV-1 NefNL4-3 (Human immunodeficiency virus type 1 group M subtype B, UniProt P03406, A33V/T15A/T51N/V11I)
# EXPERIMENT_SUMMARY: Surface plasmon resonance binding to recombinant full-length Nef (NL4-3)
# MEASUREMENT_CONTEXT: read-out: Nef NL4-3 Binding, SPR 2-state fitting KD; Table 1; 2-step induced-fit model
EXPERIMENTAL_READOUT: pKd
Hey, just a heads up that pKd is the negative log base 10 of the concentration in molar.

*Q* Would you mind telling me what pKd value was observed for Cc1ccn(CCc2c(-c3ccc(C(F)(F)F)cc3)nn(-c3nc4ccccc4[nH]3)c2O)n1 ?
*A* 8.12
